experiment: Aqueous solubility of L-thyroxine free acid in the presence of γ-cyclodextrin; assay type: physicochemical; settings: water with γ-cyclodextrin, γ-cyclodextrin 12 g/100 ml, 25° C., 1-st run; read-out: solubility of thyroxine free acid
REPORTED_METRIC: solubility (µg/mL)
Unit µg/mL implied. Number only.

# get_value(readout='solubility', item= N[C@@H](Cc1cc(I)c(Oc2cc(I)c(O)c(I)c2)c(I)c1)C(=O)O [L-thyroxine free acid] )
765

###

assay: Aqueous solubility of L-thyroxine sodium salt in the presence of cyclodextrins; type: physicochemical; settings: water with randomly-methylated-β-cyclodextrin, randomly-methylated-β-cyclodextrin 7.0%
Structures can show the parent of a compound that is named as a salt.
REPORTED_METRIC: solubility (µg/mL)
Unit µg/mL implied. Number only.

# get_value(readout='solubility', item= N[C@@H](Cc1cc(I)c(Oc2cc(I)c(O)c(I)c2)c(I)c1)C(=O)O [L-thyroxine sodium salt, Levothyroxine sodium] )
9330
